// data source = patent US12581252B2

# TARGET_OR_SYSTEM: H1047R PIK3CA enzyme (Homo sapiens, UniProt P42336, H1047R)
# Sequence (P42336 whole entry H1047R): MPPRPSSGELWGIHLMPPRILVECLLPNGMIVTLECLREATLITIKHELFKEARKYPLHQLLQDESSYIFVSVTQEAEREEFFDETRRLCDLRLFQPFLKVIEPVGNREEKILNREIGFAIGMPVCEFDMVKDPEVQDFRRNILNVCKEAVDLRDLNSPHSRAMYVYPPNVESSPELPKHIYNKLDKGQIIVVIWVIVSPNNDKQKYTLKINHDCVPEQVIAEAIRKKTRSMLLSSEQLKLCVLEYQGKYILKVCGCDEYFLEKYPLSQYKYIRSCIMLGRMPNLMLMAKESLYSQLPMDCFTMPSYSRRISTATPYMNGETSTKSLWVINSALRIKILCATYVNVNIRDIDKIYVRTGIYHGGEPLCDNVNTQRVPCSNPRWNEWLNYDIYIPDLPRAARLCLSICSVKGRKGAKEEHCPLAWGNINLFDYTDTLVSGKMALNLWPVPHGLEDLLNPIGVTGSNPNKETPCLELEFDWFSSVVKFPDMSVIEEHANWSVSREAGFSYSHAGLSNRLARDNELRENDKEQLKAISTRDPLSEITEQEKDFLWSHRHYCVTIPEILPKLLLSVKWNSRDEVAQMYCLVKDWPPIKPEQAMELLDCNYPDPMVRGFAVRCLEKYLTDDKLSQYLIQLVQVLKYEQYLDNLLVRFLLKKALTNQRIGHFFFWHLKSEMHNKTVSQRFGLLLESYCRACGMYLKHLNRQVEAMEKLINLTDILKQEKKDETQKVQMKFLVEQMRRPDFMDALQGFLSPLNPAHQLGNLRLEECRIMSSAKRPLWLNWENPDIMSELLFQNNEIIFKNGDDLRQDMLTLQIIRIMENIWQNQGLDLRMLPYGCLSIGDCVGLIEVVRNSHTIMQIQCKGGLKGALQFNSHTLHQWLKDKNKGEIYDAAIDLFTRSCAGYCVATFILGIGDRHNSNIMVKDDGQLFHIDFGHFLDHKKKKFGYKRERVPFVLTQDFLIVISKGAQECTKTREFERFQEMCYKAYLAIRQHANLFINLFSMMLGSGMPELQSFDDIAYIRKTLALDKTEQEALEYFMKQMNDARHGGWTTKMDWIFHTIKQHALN
# Sequence (P27986 whole entry partner): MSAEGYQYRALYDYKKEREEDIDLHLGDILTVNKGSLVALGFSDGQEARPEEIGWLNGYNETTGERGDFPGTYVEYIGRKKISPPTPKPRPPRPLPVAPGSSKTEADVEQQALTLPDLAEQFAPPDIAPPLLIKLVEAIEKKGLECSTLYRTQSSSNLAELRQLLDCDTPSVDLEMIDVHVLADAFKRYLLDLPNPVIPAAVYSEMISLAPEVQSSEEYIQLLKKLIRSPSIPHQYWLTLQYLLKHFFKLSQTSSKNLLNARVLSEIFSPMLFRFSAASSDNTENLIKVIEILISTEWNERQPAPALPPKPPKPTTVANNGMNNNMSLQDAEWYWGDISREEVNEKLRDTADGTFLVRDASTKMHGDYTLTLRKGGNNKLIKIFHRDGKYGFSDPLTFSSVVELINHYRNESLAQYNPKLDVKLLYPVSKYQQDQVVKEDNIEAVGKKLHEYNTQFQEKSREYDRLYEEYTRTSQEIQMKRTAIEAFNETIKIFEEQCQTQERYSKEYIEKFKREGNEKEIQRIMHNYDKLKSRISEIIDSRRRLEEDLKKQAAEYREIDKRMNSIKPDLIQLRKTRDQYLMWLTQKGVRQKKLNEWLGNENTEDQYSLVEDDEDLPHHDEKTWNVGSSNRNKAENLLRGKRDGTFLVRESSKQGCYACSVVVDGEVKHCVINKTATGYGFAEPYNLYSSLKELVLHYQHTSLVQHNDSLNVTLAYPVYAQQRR
# ASSAY_NOTES: ADP-Glo Biochemical PIK3CA Kinase Assay
PARAMETER_MEASURED: IC50

Worked cases, IC50 given:
[
  {
    "MOLECULE": "NS(=O)(=O)Cc1cc(NC(=O)c2cc(F)cc(C(F)(F)F)c2)c2c(c1)C(=O)NC2c1cc(F)ccc1Cl (stereo not shown)",
    "RESULT": "≤ 100 nM"
  },
  {
    "MOLECULE": "O=C(Nc1cc(Cc2ccc3c(c2)CCNC3=O)cc2c1C(c1cc(F)ccc1Cl)NC2=O)c1cc(F)cc(C(F)(F)F)c1 (stereo not shown)",
    "RESULT": "≤ 100 nM"
  },
  {
    "MOLECULE": "O=C(Cc1cc(-c2ccc3ncnn3c2)cc2c1C(c1cc(F)ccc1Cl)NC2=O)c1cc(F)cc(C(F)(F)F)c1 (stereo not shown)",
    "RESULT": "100 to 500 nM"
  }
]

With those in mind, consider the next molecule.
Fill in: IC50 on H1047R PIK3CA enzyme (Homo sapiens, UniProt P42336, H1047R), entry O=C(Nc1cccc2c1C(CN1CCCCC1)NC2=O)c1cc(F)cc(C(F)(F)F)c1 (stereo not shown) 10000 to 100000 nM
